- System: interferon (α) (IFN-α)
- assay.explanation: Cytokine induction in human cells: IFN-α secreted by PBMC into culture media (ELISA)
- Format: cell-based
- test.conditions: Table 10; maximal response in dose response curve; * = below experimental background level; median
measured.quantity: Maximal Response (pg/mL) IFN

{"molecule": "CCOCc1nc2c(N)nc3cc(-c4cccnc4)ccc3c2n1CCCCNC(=O)C1CCCC1 [Analog 35]", "measured": "969 pg/mL"}
{"molecule": "COCCc1nc2c(N)nc3cc(-c4cncc(CO)c4)ccc3c2n1CC(C)C [Analog 27]", "measured": "1332 pg/mL"}
{"molecule": "COCCc1nc2c(N)nc3cc(-c4ccncc4)ccc3c2n1CCCN1CCCC1=O [Analog 40]", "measured": "1179 pg/mL"}
{"molecule": "COCCc1nc2c(N)nc3cc(-c4ccccc4)ccc3c2n1CC(C)(C)O [Analog 23]", "measured": "260 pg/mL"}
{"molecule": "CCc1nc2c(N)nc3cc(-c4cccnc4)ccc3c2n1CC1CCN(C(=O)C(C)C)CC1 [Analog 19]", "measured": "1686 pg/mL"}
{"molecule": "CCOCc1nc2c(N)nc3cc(-c4cncc(CO)c4)ccc3c2n1CC(C)C [Analog 28]", "measured": "1263 pg/mL"}
{"molecule": "Nc1nc2cc(-c3ccccc3)ccc2c2c1nc(CCO)n2CCCN1CCCC1=O [Example 156]", "measured": "*"}
{"molecule": "CCCc1nc2c(N)nc3cc(-c4cncc(CO)c4)ccc3c2n1CC(C)(C)O [Analog 17]", "measured": "1079 pg/mL"}
{"molecule": "CCOCc1nc2c(N)nc3cc(-c4cccnc4)ccc3c2n1CC1CCN(C(=O)C(C)C)CC1 [Analog 18]", "measured": "2979 pg/mL"}
{"molecule": "CCCC(=O)NCCCCn1c(COCC)nc2c(N)nc3cc(-c4cccnc4)ccc3c21 [Analog 31]", "measured": "965 pg/mL"}
{"molecule": "CCCNC(=O)NCCCCn1c(CCC)nc2c(N)nc3cc(-c4cccnc4)ccc3c21 [Analog 30]", "measured": "531 pg/mL"}
{"molecule": "CCOCc1nc2c(N)nc3cc(-c4cccnc4)ccc3c2n1CCCCNC(=O)C(C)C [Analog 37]", "measured": "1194 pg/mL"}
{"molecule": "CCOCc1nc2c(N)nc3cc(-c4cncc(CO)c4)ccc3c2n1CC(C)(C)O [Analog 14]", "measured": "6308 pg/mL"}
{"molecule": "COCc1nc2c(N)nc3cc(-c4cccnc4)ccc3c2n1CC(C)(C)O [Analog 11]", "measured": "829 pg/mL"}
{"molecule": "CCOCc1nc2c(N)nc3cc(-c4cccc(C)c4)ccc3c2n1CC(C)(C)O [Analog 41]", "measured": "541 pg/mL"}
{"molecule": "COCCc1nc2c(N)nc3cc(-c4cccnc4)ccc3c2n1CC(C)(C)O [Analog 12]", "measured": "1065 pg/mL"}
{"molecule": "CCOCc1nc2c(N)nc3cc(-c4ccc(C)cc4)ccc3c2n1CC(C)(C)O [Analog 42]", "measured": "650 pg/mL"}
{"molecule": "Nc1nc2cc(-c3cccnc3)ccc2c2c1nc(CCO)n2CCCN1CCCC1=O [Example 160]", "measured": "109 pg/mL"}
